# Tested on: DU-145
# ASSAY_TEXT: NCI tumour cell line growth inhibition, 48 h
Activity calls are given as the source filed them. Rule as the data show it: active = GI50 up to about 1.1 µM and inactive = higher.
Below, each entry is listed alongside its reported GI50.

Inquiry: Field request: GI50 | item: Cc1cc(C)c(P2C(=C(O[Si](C(C)C)(C(C)C)C(C)C)C(C)(C)C)C2(c2ccccc2)c2ccccc2)c(C)c1 (centres undefined)
Reply text: > 100 µM (inactive)

Inquiry: # iterate: Cc1cc(O)c2c3c(ccc2c1)C(=O)c1c(O)cccc1C3=O
Reply text: 4.56 µM (inactive)

Inquiry: # iterate: CC(=O)Oc1ccc2[nH]c3c(C)c4cccc-4ccc3c2c1
Reply text: 3.27 µM (inactive)

Inquiry: # iterate: CN(C)/C=N/S(=O)(=O)c1nn2c(C=O)c(-c3ccc(Cl)cc3)nc2s1
Reply text: 2.12 µM (inactive)

Inquiry: # iterate: CCC/N=C/c1c(O)c(O)c(C(C)C)c2cc(C)c(-c3c(C)cc4c(C(C)C)c(O)c(O)c(/C=N/CCC)c4c3O)c(O)c12
Reply text: 23.8 µM (inactive)

Inquiry: # iterate: CCCCCCC(CCl)c1sc(-c2csc(CCNC(=O)OC(C)(C)C)n2)nc1C(=O)OC (centres undefined)
Reply text: 33.7 µM (inactive)

Inquiry: # iterate: COCOc1cc(OC)ccc1C/C=N/O
Reply text: > 100 µM (inactive)

Inquiry: # iterate: COC(=O)C1=C([C@H]2COC(C)(C)O2)[C@H]2C[C@@H]1[C@@H]1OC(C)(C)O[C@@H]12
Reply text: > 100 µM (inactive)

Inquiry: # iterate: CCc1c(O)nc(Nc2nc3ccccc3[nH]2)[nH]c1=O
Reply text: > 100 µM (inactive)

----------
# Tested on: CCRF-CEM
# ASSAY_TEXT: NCI tumour cell line growth inhibition, 48 h
Active and inactive are the calls of the source. Rule as the data show it: active = GI50 up to about 1.1 µM and inactive = higher.
A correct response names exactly one class from Y for active, N for inactive

For orientation, consider the following solved cases.
>>> class("Cc1ccc(C[P+]2(c3ccccc3)CCCCC2)cc1.[O-][Cl+3]([O-])([O-])[O-]")
"N"
>>> class("COc1cc2c(cc1O)NC(=O)[C@@H]1C[C@@H](O)CN1C2=O")
"N"
>>> class("Cc1cc(Cl)ccc1C(=O)c1ccc2ccccc2c1C(=O)O")
"N"
>>> class("c1ccc2c(CNCCCN3CCN(CCCNCc4cccc5ccccc45)CC3)cccc2c1")
"N"
>>> class("NNC(=O)CCSc1ccccc1")
"N"

From here, focus on the item given below.
Inquiry: Please state the recorded outcome for this compound: Cn1c2ccccc2c(=S)c2ccccc21
Reply text: N

----------
# System: K562
# ASSAY_TEXT: NCI tumour cell line growth inhibition, 48 h
Active and inactive are the calls of the source. Rule as the data show it: active = GI50 up to about 1.1 µM and inactive = higher.
Below, each entry is listed alongside its reported GI50.

Consider the reported GI50 for these molecules:
>>> result("CC(=O)Oc1c(C)n(CCCl)ccc1=O")
"> 100 µM (inactive)"
>>> result("Oc1c(Br)cc(/C=C/c2cccc(/C=C/c3cc(Br)c(O)c(Br)c3)n2)cc1Br")
"3.3 µM (inactive)"
>>> result("CCCCCCC(CCl)c1sc(-c2csc(CCNC(=O)OC(C)(C)C)n2)nc1C(=O)OC (centres undefined)")
"13.5 µM (inactive)"
>>> result("O=C1CC(C(=O)O)Cc2c(Br)ccc(O)c21 (centres undefined)")
"> 100 µM (inactive)"
>>> result("Cc1ccc(-n2cc(-c3ccc(Cl)cc3)c3c(NNC(=S)NCc4ccccc4)ncnc32)cc1")
"4.99 µM (inactive)"

Inquiry: // lookup GI50 | system=K562 | key= Cc1ccccc1SC(/C=C/NNC1=NN=C(c2ccccc2)C(c2ccccc2)N1)c1ccccc1 (centres undefined)
Reply text: 30.2 µM (inactive)

Inquiry: # iterate: O=C(O)CN1C(=O)c2ccc(NC(=O)C(=O)O)cc2S1(=O)=O
Reply text: > 100 µM (inactive)

Inquiry: # iterate: CSc1cnc2ccccc2c1Sc1c[nH]c2ccccc2c1=O
Reply text: 3.46 µM (inactive)

Inquiry: # iterate: C=CCC1CC(n2cc(C)c(=O)[nH]c2=O)OC1CO[Si](C)(C)C(C)(C)C (centres undefined)
Reply text: 0.163 µM (active)

Inquiry: # iterate: CN(C)c1ccc(C2CC(c3ccc4ccccc4c3O)=NN2)cc1 (centres undefined)
Reply text: 25.5 µM (inactive)

----------
# Test system: OVCAR-5
# ASSAY_TEXT: NCI tumour cell line growth inhibition, 48 h
Calls of active or inactive are those of the source. Cut-off read from the data, not from the text of the source: active = GI50 up to about 1.1 µM and inactive = higher.
Below, each entry is listed alongside its reported GI50.

>>> result("COc1ccc(/C(Cl)=C(\\C=O)c2ccc([N+](=O)[O-])cc2)cc1OC")
"5.13 µM (inactive)"
>>> result("O/N=C(\\C(=N/O)Nc1ccc(-c2ccc(NC(=N/O)/C(=N\\O)c3ccccc3)cc2)cc1)c1ccccc1")
"13.5 µM (inactive)"
>>> result("COC(=O)[C@H]1[C@H](OC(=O)[C@@H](OC)c2ccccc2)ON2CC[C@@H](OC(=O)c3ccccc3)[C@H]12")
"> 100 µM (inactive)"
>>> result("NCC(=O)C(O)C(O)C(O)CO (centres undefined)")
"> 100 µM (inactive)"
>>> result("CC1=CC(O)C(O)C2(C)C1CC1OC(=O)C(O)C3C(C)C(O)C4(O)OCC13C42 (centres undefined)")
"161 µM (inactive)"
>>> result("CCc1cccc(C)c1NC(=O)CCc1nnc2s/c(=C\\c3cccc4ccccc34)c(=O)n12")
"> 100 µM (inactive)"
>>> result("O=C1C[C@@H]2[C@@H](CCC23CC3)N1")
"> 100 µM (inactive)"
>>> result("Cc1c(C)c(S(=O)(=O)N(CCCCCN)OCCCN)c(C)c2c1OC(C)(C)CC2")
"24.8 µM (inactive)"

Inquiry: Field request: GI50 | item: Cc1cc(Cl)ccc1N1C(=O)C(=O)C(c2nc3ccccc3s2)/C(=N\NC(=O)c2ccccc2O)C1=O (centres undefined)
Reply text: > 100 µM (inactive)

----------
# System: HCC 2998
# ASSAY_TEXT: NCI tumour cell line growth inhibition, 48 h
The source made the active and inactive calls. Cut-off read from the data, not from the text of the source: active = GI50 up to about 1.1 µM and inactive = higher.
Below, each entry is listed alongside its reported GI50.

Inquiry: Field request: GI50 | item: CC(=O)OCC1OC(SC2=N/C(=C\c3cc4c(=O)c5ccccc5sc4s3)C(=O)N2c2ccccc2)C(OC(C)=O)C(OC(C)=O)C1OC(C)=O (configuration not stated)
Reply text: > 100 µM (inactive)

Inquiry: # iterate: C[Si](C)(C)C1(Sc2ccccc2)SCCCS1
Reply text: 31.5 µM (inactive)

Inquiry: # iterate: COc1cc2c(cc1OC)C(=O)/C(=C/c1ccccc1)CC2
Reply text: 22.6 µM (inactive)

Inquiry: # iterate: N#Cc1c(NN)nc(NN)c(C#N)c1-c1ccccc1
Reply text: > 100 µM (inactive)

Inquiry: # iterate: COc1ccc(/C(Cl)=C(\C=O)c2cc(OC)c(OC)c(OC)c2)cc1OC
Reply text: 26.4 µM (inactive)

Inquiry: # iterate: c1ccc2cc(-c3cc4ccccc4s3)ccc2c1
Reply text: > 100 µM (inactive)

Inquiry: # iterate: CCOC(=O)C1=NN(c2ccc(C)cc2)C2(c3ccccc3)C=C(c3ccccc3)N(C)CCN12 (configuration not stated)
Reply text: 82.4 µM (inactive)

Inquiry: # iterate: COC(=O)C(Cc1c[nH]c2ccccc12)NC1=Nc2ccncc2S(=O)(=O)N1c1cccc(OC(C)C)c1 (configuration not stated)
Reply text: 48.8 µM (inactive)

Inquiry: # iterate: CN(C)C(=O)/N=C1\SC(=N\c2ccccc2)/C(=N/c2ccccc2)N1c1ccc([N+](=O)[O-])cc1
Reply text: > 100 µM (inactive)

Inquiry: # iterate: CC(C)CCn1c(=O)c2c(=O)[nH][nH]c2c2ccccc21
Reply text: > 100 µM (inactive)

Inquiry: # iterate: O=C1OC(C2Cc3ccc4c(c3C2=O)CCC4)c2ccccc21 (configuration not stated)
Reply text: 37.4 µM (inactive)

----------
# Tested on: HOP-62
# ASSAY_TEXT: NCI tumour cell line growth inhibition, 48 h
Active and inactive are the calls of the source. Rule as the data show it: active = GI50 up to about 1.1 µM and inactive = higher.
Below, each entry is listed alongside its reported GI50.

Consider the reported GI50 for these compounds:
>>> result("Nc1ccc(/N=N\\c2ccc(-c3ccc(O)cc3)cc2)c2ccc(S(=O)(=O)O)cc12")
"> 100 µM (inactive)"
>>> result("NC(=O)C1C(=O)Oc2cccnc21 (stereo not drawn)")
"> 100 µM (inactive)"
>>> result("C#CC(=O)OCC#CCOC(=O)C#C")
"21.6 µM (inactive)"
>>> result("CCCC(=O)NC(Nc1ccc(F)cc1)(C(F)(F)F)C(F)(F)F")
"> 100 µM (inactive)"

Inquiry: Field request: GI50 | item: COc1ccc(Br)c(CCCCC(=O)O)c1
Reply text: > 100 µM (inactive)

Inquiry: # iterate: Nc1cccc2cc(Cl)cnc12
Reply text: > 100 µM (inactive)

Inquiry: # iterate: O=[N+]([O-])c1ccc(/C=C/c2ccc(/C=C/c3ccc([N+](=O)[O-])cc3[N+](=O)[O-])cc2)c([N+](=O)[O-])c1
Reply text: > 100 µM (inactive)

Inquiry: # iterate: COc1cc2cc(C(=O)N3CC(CCl)c4ccc([N+](C)(C)Cc5ccc([N+](=O)[O-])cc5)cc43)[nH]c2c(OC)c1OC (stereo not drawn)
Reply text: 4.92 µM (inactive)

Inquiry: # iterate: c1c[nH]c(CN2CCOCC2)n1
Reply text: > 100 µM (inactive)

Inquiry: # iterate: CSc1nc(SC)c2ncn(C3CC(Oc4ccc(C)cc4)C(COc4ccc(C)cc4)O3)c2n1 (stereo not drawn)
Reply text: > 100 µM (inactive)

Inquiry: # iterate: Nc1nc(NNc2ccccc2F)cc(=O)[nH]1
Reply text: > 100 µM (inactive)

Inquiry: # iterate: CC(=O)OCC1OC(SC2=N/C(=C\c3cc4c(=O)c5ccccc5sc4s3)C(=O)N2c2ccccc2)C(OC(C)=O)C(OC(C)=O)C1OC(C)=O (stereo not drawn)
Reply text: > 100 µM (inactive)

Inquiry: # iterate: CC#C[C@@]1(O)CCCCC1O (stereo partly drawn)
Reply text: > 100 µM (inactive)

Inquiry: # iterate: O=c1c(SSc2coc3cc(F)ccc3c2=O)coc2cc(F)ccc12
Reply text: 19.8 µM (inactive)
